Assay: qHTS for differential inhibitors of proliferation of Plasmodium falciparum line D10 (AID 1877);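 note: parasites grown with compound for 72 h before DNA staining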
Conditions: series mostly up to 28.7 µM
Inconclusive results are not listed. Calls of active or inactive are those of the source. Calls come from the whole dose curve; as a rule, active = well fitted curve in the direction sought with a large enough effect; inconclusive = small, poorly fitted or top-dose-only effect, or another doubt; inactive = no such curve, though single readings can be large or run the other way.
Outcomes: 1 for active, -1 for inactive

{"columns": ["Compound", "Group label"],
 "data": [
  ["CN1C2CCC1CC(OC(=O)C(CO)c1ccccc1)C2 (stereo unspecified)", -1],
  ["NCCc1cnc[nH]1", -1],
  ["OCCN(CCO)c1nc(N2CCCCC2)c2nc(N(CCO)CCO)nc(N3CCCCC3)c2n1", 1],
  ["Nc1nnc(-c2cccc(Cl)c2Cl)c(N)n1", -1],
  ["NS(=O)(=O)c1cc2c(cc1Cl)NCNS2(=O)=O", -1],
  ["CCOC(=O)c1ncn2c1CN(C)C(=O)c1cc(F)ccc1-2", -1],
  ["NCCS(=O)(=O)O", -1],
  ["Cn1c(=O)c2c(ncn2C)n(C)c1=O", -1],
  ["CC(C)NCC(O)COc1ccc(CCOCC2CC2)cc1 (stereo unspecified)", -1],
  ["CS(=O)(=O)Nc1ccc([N+](=O)[O-])cc1Oc1ccccc1", -1],
  ["COc1ccc2[nH]cc(CCNC(C)=O)c2c1", -1],
  ["CN(C)c1nc(N(C)C)nc(N(C)C)n1", -1],
  ["COc1cc2nc(N3CCN(C(=O)c4ccco4)CC3)nc(N)c2cc1OC", 1],
  ["CN1C(C(=O)Nc2ccccn2)=C(O)c2ccccc2S1(=O)=O", -1],
  ["CN1CCC(=C2c3ccccc3C=Cc3ccccc32)CC1", 1],
  ["NCCCCCC(=O)O", -1],
  ["NC12CC3CC(CC(C3)C1)C2", -1],
  ["O=C(c1ccc(OCCN2CCCCC2)cc1)c1c(-c2ccc(O)cc2)sc2cc(O)ccc12", 1],
  ["CCOC(=O)Nc1ccc(NCc2ccc(F)cc2)nc1N", 1],
  ["Nc1nc2c(ncn2COC(CO)CO)c(=O)[nH]1", -1],
  ["CCCNCC(O)COc1ccccc1C(=O)CCc1ccccc1 (stereo unspecified)", 1]
]}
